- Subject of test: METTL16–MAT2A-hp1 mRNA interaction (METTL16 MTD 1–291, FAM-labeled MAT2A-hp1 RNA) (Homo sapiens)
- Assay name: Fluorescence polarization (FP) assay, disruption of METTL16 binding to FAM-MAT2A-hp1 RNA
# reported log10 IC50; entries follow
Experimental endpoint: log10 IC50 (log10 of the value in µM)

# Compound smiles, Observed value
measured = [
    ("COc1ccc(S(=O)(=O)NC2=NC(=O)C(=C3C(=O)N(C)c4ccc(F)cc43)S2)cc1", 1.18),
    ("O=C1N=C(NS(=O)(=O)c2ccc(F)cc2Cl)SC1=C1C(=O)Nc2ccc(Cl)cc21", 1.15),
    ("COc1ccc(S(=O)(=O)NC2=NC(=O)C(=Cc3cc4ccccc4[nH]3)S2)cc1", 1.37),
    ("O=C1N=C(NS(=O)(=O)c2ccccc2)SC1=C1C(=O)Nc2ccc(Cl)cc21", 1.20),
    ("COc1ccc(S(=O)(=O)NC2=NC(=O)C(=C3C(=O)Nc4c(Cl)cccc43)S2)cc1", 1.76),
    ("O=C1N=C(NS(=O)(=O)c2ccc(C(=O)O)cc2)SC1=C1C(=O)Nc2ccc(Br)cc21", 0.32),
    ("COc1ccc(S(=O)(=O)NC2=NC(=O)C(=C3C(=O)Nc4ccc(F)cc43)S2)cc1", 1.43),
    ("O=C1N=C(NS(=O)(=O)c2ccc3ccccc3c2)SC1=C1C(=O)Nc2ccc(Cl)cc21", 1.00),
]

###

- Subject of test: His-tagged METTL16 MTD (Homo sapiens)
- Sequence (Q86W50 1-291): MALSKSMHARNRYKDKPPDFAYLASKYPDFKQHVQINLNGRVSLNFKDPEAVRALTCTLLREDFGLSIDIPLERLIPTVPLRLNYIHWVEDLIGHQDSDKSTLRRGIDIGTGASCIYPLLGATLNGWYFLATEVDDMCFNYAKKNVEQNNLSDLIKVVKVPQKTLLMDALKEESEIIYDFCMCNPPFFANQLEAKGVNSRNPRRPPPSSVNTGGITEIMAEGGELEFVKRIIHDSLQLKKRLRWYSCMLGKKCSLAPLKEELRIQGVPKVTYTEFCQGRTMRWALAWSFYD

# Compound, Kd
data = [
    ("CN1C(=O)C(=C2SC(NS(=O)(=O)c3ccc(C(=O)O)cc3)=NC2=O)c2cc(Br)ccc21 [Compound 45]", "1350 nM"),
    ("O=C1N=C(NS(=O)(=O)c2ccc(C(=O)O)cc2)SC1=C1C(=O)Nc2ccc(Br)cc21 [Compound 47]", "1760 nM"),
]

###

- Subject of test: METTL16–MAT2A-hp1 mRNA interaction (METTL16 MTD 1–291, FAM-labeled MAT2A-hp1 RNA) (Homo sapiens, UniProt Q86W50)
- Sequence (Q86W50 1-291): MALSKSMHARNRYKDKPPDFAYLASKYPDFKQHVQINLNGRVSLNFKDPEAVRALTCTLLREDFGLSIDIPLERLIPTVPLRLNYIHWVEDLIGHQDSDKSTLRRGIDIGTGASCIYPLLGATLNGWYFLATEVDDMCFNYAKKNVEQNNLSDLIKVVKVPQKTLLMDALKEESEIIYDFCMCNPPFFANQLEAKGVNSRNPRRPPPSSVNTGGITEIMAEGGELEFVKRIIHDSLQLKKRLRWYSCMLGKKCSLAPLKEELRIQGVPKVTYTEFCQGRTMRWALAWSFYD
- Assay name: Fluorescence polarization (FP) assay, disruption of METTL16 binding to FAM-MAT2A-hp1 RNA
pIC50: −log10 of the molar value.
Returns Fulfilled if the recorded pIC50 is greater than or equal to 5, and Not fulfilled otherwise.

# Compound, Group label
rows = [
    ("COc1ccc(S(=O)(=O)NC2=NC(=O)C(=C3C(=O)Nc4ccc(Cl)cc43)S2)cc1 [Compound 1]", "Not fulfilled"),
    ("COc1ccc(S(=O)(=O)NC2=NC(=O)C(=C3C(=O)Nc4cc(Cl)ccc43)S2)cc1 [Compound 15]", "Not fulfilled"),
    ("CN1C(=O)C(=C2SC(NS(=O)(=O)c3ccc(C(=O)O)cc3)=NC2=O)c2cc(Br)ccc21 [Compound 45]", "Fulfilled"),
    ("CN1C(=O)C(=C2SC(NS(=O)(=O)c3cccc(C(=O)O)c3)=NC2=O)c2cc(Br)ccc21 [Compound 49]", "Fulfilled"),
    ("CS(=O)(=O)NC1=NC(=O)C(=C2C(=O)Nc3ccc(Cl)cc32)S1 [Compound 29]", "Not fulfilled"),
]

Taken from paper PMC11040665.
